Molecular target: BCRP/ABCG2 (Homo sapiens)
Sequence (Q9UNQ0 1-655): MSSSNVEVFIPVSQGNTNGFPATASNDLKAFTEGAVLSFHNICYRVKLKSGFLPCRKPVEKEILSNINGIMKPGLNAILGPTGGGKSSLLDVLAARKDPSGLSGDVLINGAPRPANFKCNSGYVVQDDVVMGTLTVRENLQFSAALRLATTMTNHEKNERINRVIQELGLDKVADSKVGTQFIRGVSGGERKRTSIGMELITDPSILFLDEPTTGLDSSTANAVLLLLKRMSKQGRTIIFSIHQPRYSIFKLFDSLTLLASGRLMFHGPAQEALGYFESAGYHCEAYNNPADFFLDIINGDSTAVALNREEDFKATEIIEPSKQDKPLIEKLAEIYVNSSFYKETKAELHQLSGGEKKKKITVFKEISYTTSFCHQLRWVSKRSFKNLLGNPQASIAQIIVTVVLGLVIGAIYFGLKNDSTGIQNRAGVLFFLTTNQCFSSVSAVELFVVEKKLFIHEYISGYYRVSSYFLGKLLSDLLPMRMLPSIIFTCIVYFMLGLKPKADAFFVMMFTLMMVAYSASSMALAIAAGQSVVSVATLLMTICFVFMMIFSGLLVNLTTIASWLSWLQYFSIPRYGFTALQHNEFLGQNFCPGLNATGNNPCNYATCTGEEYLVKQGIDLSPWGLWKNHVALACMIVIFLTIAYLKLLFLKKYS
Assay: BCRP-mediated mitoxantrone efflux inhibition, ABCG2-transfected HEK293 cells, flow cytometry
Details: ABCG2 inhibition, Table 2
Task for the reader: assign each of the following compounds its reported pIC50.
Lab note: report pIC50 as minus log10 of the concentration in molar units, number only.

// pIC50 lookup, key: COc1ccc2[nH]cc(CCNC(=O)c3cc(=O)c4c(OCc5cc(Br)cc(Br)c5)cccc4o3)c2c1 [7b (series 3)]
7.00

// pIC50 lookup, key: COc1ccc2[nH]cc(CCNC(=O)c3cc(=O)c4c(OCc5ccc(Br)cc5)cccc4o3)c2c1 [MBL-II-141, reference compound]
6.89

---

target: BCRP/ABCG2 (Homo sapiens, UniProt Q9UNQ0); assay: BCRP-mediated mitoxantrone efflux inhibition, ABCG2-transfected HEK293 cells, flow cytometry; conditions: human, probe mitoxantrone (MX), 4 μM
Assay endpoint: inhibition at 30 min, 1 μM (%)
The answer is to be given in %; state only the numeric part.

// inhibition at 30 min, 1 μM lookup, key: O=C(N[C@@H](Cc1ccccc1)C(=O)O)c1cc(=O)c2c(OCc3ccc(Br)cc3)cccc2o1 [6d (series 1)]
4

// inhibition at 30 min, 1 μM lookup, key: COC(=O)[C@H](Cc1c[nH]c2ccccc12)NC(=O)c1cc(=O)c2c(OCc3ccccc3Br)cccc2o1 [5g (series 1)]
93.7

// inhibition at 30 min, 1 μM lookup, key: COC(=O)[C@H](CC(C)C)NC(=O)c1cc(=O)c2c(OCc3ccccc3Br)cccc2o1 [5c (series 1)]
115

// inhibition at 30 min, 1 μM lookup, key: COC(=O)[C@H](Cc1c[nH]c2ccccc12)NC(=O)c1cc(=O)c2c(OCc3ccc(Br)cc3)cccc2o1 [5h (series 1)]
92

---

Task for the reader: assign each of the following compounds its reported pIC50.
Molecular target: BCRP/ABCG2 (Homo sapiens)
Sequence (Q9UNQ0 1-655): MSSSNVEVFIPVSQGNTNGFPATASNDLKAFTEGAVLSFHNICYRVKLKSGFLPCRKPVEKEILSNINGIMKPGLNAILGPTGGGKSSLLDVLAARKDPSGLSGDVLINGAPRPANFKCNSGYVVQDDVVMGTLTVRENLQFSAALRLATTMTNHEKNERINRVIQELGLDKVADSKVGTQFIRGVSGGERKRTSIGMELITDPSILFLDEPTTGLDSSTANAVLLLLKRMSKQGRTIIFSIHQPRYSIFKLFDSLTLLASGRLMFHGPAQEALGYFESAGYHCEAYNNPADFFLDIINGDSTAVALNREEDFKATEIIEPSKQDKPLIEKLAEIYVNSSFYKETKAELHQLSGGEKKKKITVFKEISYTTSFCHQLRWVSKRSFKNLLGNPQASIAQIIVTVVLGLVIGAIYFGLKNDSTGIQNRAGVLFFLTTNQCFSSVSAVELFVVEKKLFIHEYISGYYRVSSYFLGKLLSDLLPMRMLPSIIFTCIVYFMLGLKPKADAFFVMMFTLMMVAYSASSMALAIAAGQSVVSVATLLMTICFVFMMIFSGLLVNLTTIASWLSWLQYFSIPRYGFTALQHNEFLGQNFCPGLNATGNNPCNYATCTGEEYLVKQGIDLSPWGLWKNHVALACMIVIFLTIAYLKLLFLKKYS
Assay: BCRP-mediated mitoxantrone efflux inhibition, ABCG2-transfected HEK293 cells, flow cytometry
Lab note: report pIC50 as minus log10 of the concentration in molar units, number only.

// pIC50 lookup, key: COC(=O)[C@@H](NC(=O)c1cc(=O)c2c(OCc3ccccc3Br)cccc2o1)C(C)C [5d (series 1)]
7.30

// pIC50 lookup, key: CCC(C)[C@H](NC(=O)c1cc(=O)c2c(OCc3ccccc3Br)cccc2o1)C(=O)OC (some centres unmarked) [5a (series 1)]
7.00

// pIC50 lookup, key: CC[C@@H](C)[C@H](NC(=O)c1cc(=O)c2c(OCc3ccccc3Br)cccc2o1)C(=O)N[C@H](C(=O)OC)C(C)C [7a (series 2)]
7.15

// pIC50 lookup, key: COC(=O)[C@H](Cc1c[nH]c2ccccc12)NC(=O)c1cc(=O)c2c(OCc3ccc(Br)cc3)cccc2o1 [5h (series 1)]
6.32

// pIC50 lookup, key: CC[C@@H](C)[C@H](NC(=O)c1cc(=O)c2c(OCc3ccccc3Br)cccc2o1)C(=O)N[C@@H](CC(C)C)C(=O)OC [7b (series 2)]
7.15

// pIC50 lookup, key: COc1ccc2[nH]cc(CCNC(=O)c3cc(=O)c4c(OCc5ccc(Br)cc5Br)cccc4o3)c2c1 [7a (series 3)]
7.30

// pIC50 lookup, key: CC[C@@H](C)[C@H](NC(=O)c1cc(=O)c2c(OCc3ccc(Br)cc3)cccc2o1)C(=O)N[C@H](C(=O)OC)C(C)C [7c (series 2)]
6.60

// pIC50 lookup, key: CC[C@@H](C)[C@H](NC(=O)c1cc(=O)c2c(OCc3ccc(Br)cc3)cccc2o1)C(=O)N[C@@H](CC(C)C)C(=O)OC [7d (series 2)]
6.96

// pIC50 lookup, key: COC(=O)[C@H](CC(C)C)NC(=O)c1cc(=O)c2c(OCc3ccccc3Br)cccc2o1 [5c (series 1)]
6.85

// pIC50 lookup, key: COC(=O)[C@@H](Cc1c[nH]c2ccccc12)NC(=O)c1cc(=O)c2c(OCc3ccc(Br)cc3)cccc2o1 [5i (series 1)]
6.54

// pIC50 lookup, key: CCC(C)[C@H](NC(=O)c1cc(=O)c2c(OCc3ccc(Br)cc3)cccc2o1)C(=O)OC (some centres unmarked) [5b (series 1)]
6.23
